Just for reference, ChEMBL document CHEMBL5126575 is where these values come from.

measuredTarget: Carbonic anhydrase 9 (Homo sapiens, UniProt Q16790)
pKi: −log10 of the molar value.
parameter: pKi

These recorded examples may help you get a feel for the data.
CCn1cc(S(N)(=O)=O)c2cc(NC(=O)c3cc(-c4ccccc4)nc4ccc(OC)cc34)ccc21; 4.40
CCn1cc(S(N)(=O)=O)c2cc(NC(=O)c3cc(-c4ccc5c(c4)OCO5)nc4ccccc34)ccc21; 5.12
CCn1cc(S(N)(=O)=O)c2cc(NC(=O)c3cc(-c4cc(Cl)cc(Cl)c4)nc4ccc(OC)cc34)ccc21; 5.37
CCn1cc(S(N)(=O)=O)c2cc(NC(=O)c3cc(Cl)nc(Br)c3)ccc21; 5.06
CCn1cc(S(N)(=O)=O)c2cc(NC(=O)c3cc(-c4ccc(Cl)cc4Cl)nc4ccccc34)ccc21; 5.83
CCn1cc(S(N)(=O)=O)c2cc(NC(=O)c3ccnc(O)c3)ccc21; 5.27
Cn1cc(S(N)(=O)=O)c2cc(NC(=O)c3ccnc(O)c3)ccc21; 5.04

a: CCn1cc(S(N)(=O)=O)c2cc(NC(=O)c3ccnc(Br)c3)ccc21
b: Cn1cc(S(N)(=O)=O)c2cc(NC(=O)c3cc(-c4ccccc4)nc4ccccc34)ccc21
c: CCn1cc(S(N)(=O)=O)c2cc(NC(=O)c3cc(-c4ccccc4Cl)nc4ccccc34)ccc21
d: Cn1cc(S(N)(=O)=O)c2cc(NC(=O)c3ccnc(N)c3)ccc21
e: CCn1cc(S(N)(=O)=O)c2cc(NC(=O)c3ccnc(N)c3)ccc21
Ask: Sort (5 compounds) by pKi: min first. Form entry: labels listed in requested order.
Reply: b, d, e, a, c
(b: 4.08, d: 4.46, e: 4.70, a: 5.09, c: 5.80)
